Target: EphB4-EphrinB2 (Mus musculus, UniProt P54761)
Construct: biosensor immobilized rodent EphB1-Fc and EphB4-Fc ectodomain proteins; mouse EB2-His residues 18-232; purchased R&D Systems (EphB-Fc); Sino Biologicals (EphrinB-His)
Sequence (P54761 16-539 limits assumed): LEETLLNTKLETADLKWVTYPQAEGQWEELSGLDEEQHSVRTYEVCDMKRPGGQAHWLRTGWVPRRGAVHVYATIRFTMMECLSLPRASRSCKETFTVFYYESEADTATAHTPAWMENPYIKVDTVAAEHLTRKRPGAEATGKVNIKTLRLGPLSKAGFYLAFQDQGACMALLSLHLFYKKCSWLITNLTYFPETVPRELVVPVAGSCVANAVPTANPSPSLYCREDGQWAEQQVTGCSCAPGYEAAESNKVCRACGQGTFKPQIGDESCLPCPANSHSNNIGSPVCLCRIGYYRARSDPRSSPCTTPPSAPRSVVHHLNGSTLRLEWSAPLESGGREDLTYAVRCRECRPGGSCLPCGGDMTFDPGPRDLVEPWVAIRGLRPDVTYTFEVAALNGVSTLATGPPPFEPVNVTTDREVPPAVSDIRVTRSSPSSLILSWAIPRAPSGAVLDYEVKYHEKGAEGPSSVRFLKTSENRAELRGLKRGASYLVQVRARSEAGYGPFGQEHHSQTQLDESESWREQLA
Experiment: Octet RED384, immobilized mouse EphB4-Fc binding to mouse EB2-His
Conditions: mEphB4-mEphrinB2; immobilized mouse EphB4; 50 nM soluble mouse EphrinB2; dissociation; relative; read-out: Relative Dissociation IC50
Method: […] Association time was for 400 sec and dissociation time was for 500 sec. Binding assays were conducted in PBS containing 0.05% Tween-20 and 1% DMSO.
Below, each entry is listed with its recorded IC50.
Write the value in nM as a bare number.

{"substance_smiles": "Oc1c(Cl)cc(CN2CCOCC2)c2cccnc12", "uom": "nM", "IC50": 530}
{"substance_smiles": "Oc1c(Br)cc(CN2CCOCC2)c2cccnc12", "uom": "nM", "IC50": 220}

Task: # query: IC50 | item "O=[N+]([O-])c1cc(CN2CCOCC2)c2cccnc2c1O" | system: EphB4-EphrinB2 (Mus musculus, UniProt P54761)
Result: 2380

Task: What do you have for "Oc1c(I)cc(CN2CCOCC2)c2cccnc12" ?
Result: 530

Task: What do you have for "Oc1ccc(CN2CCN(Cc3ccc(C(F)(F)F)cc3)CC2)c2cccnc12" ?
Result: 1890

Task: What do you have for "O=S1(=O)CCN(Cc2ccc(O)c3ncccc23)CC1" ?
Result: 630

* * *

Molecular target: EphrinB2-EphB2 (Homo sapiens, UniProt P29323)
Construct: soluble human EphB1-His, EphB2-His, and EphB4-His ectodomains; commercially available human EphrinB1-Fc (EB1), EphrinB2-Fc (EB2), and EphrinB3-Fc (EB3) ectodomain proteins; purchased
Sequence (P29323 19-543 limits assumed): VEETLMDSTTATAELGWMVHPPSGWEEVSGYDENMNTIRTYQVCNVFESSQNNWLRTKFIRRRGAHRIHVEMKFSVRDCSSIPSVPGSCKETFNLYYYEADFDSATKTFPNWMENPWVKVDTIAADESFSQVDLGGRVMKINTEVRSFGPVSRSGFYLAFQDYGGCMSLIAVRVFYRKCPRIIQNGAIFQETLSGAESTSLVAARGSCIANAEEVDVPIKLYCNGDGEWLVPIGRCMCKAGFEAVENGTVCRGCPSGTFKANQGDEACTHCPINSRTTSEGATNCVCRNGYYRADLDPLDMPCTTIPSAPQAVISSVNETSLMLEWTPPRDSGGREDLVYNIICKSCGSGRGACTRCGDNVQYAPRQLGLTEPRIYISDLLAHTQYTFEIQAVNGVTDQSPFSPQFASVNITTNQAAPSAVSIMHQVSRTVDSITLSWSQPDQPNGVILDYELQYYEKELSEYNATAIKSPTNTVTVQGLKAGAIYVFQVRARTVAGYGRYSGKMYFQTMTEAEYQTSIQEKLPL
Assay: Octet tetramerization inhibition, immobilized human EphrinB2 binding to 50 nM soluble human EphB2
Details: Relative AUC/IC50, Table A, EphrinB2-EphB2; compound 7: association only
Below, each entry is listed with its recorded IC50.
Write the value in nM as a bare number.

Please review the entries below; each comes with its answer.
{"compound": "COc1ccccc1N1CCN(Cc2cc(Br)c(O)c3ncccc23)CC1", "uom": "nM", "IC50": 170}
{"compound": "Oc1c(I)cc(CN2CCOCC2)c2cccnc12 [Compound 8]", "uom": "nM", "IC50": 630}

Consider the record given below.
Task: IC50 lookup needed for "Oc1c(Br)cc(CN2CCOCC2)c2cccnc12" , thanks.
Result: 480

* * *

Biological target: EphA3-EphrinA1 (Homo sapiens, UniProt P29320)
Sequence (P29320 21-541 limits assumed): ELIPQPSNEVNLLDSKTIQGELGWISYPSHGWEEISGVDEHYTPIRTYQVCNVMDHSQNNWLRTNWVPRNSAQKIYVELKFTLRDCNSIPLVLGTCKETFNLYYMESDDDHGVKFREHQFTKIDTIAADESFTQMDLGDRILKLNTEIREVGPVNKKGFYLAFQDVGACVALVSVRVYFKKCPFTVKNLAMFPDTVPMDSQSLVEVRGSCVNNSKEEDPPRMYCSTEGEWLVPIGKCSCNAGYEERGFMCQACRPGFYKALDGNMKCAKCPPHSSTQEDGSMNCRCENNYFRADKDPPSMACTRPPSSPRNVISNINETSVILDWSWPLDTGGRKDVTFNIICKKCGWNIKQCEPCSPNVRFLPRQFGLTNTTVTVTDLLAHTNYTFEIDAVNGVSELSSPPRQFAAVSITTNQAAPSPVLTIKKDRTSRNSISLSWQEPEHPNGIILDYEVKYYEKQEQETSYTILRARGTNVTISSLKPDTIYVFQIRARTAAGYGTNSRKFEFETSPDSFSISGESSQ
Test: Octet, immobilized human EphA3 binding to human EphrinA1
Conditions: Absolute Dissociation IC50, Human EphA3-EphrinA1; immobilized human EphA3; 50 nM soluble human EphrinA1; dissociation; absolute
quantity_kind: pIC50
Please treat pIC50 as minus the base-10 logarithm of the molar concentration.

Task: pIC50 lookup needed for O=[N+]([O-])c1cc(CN2CCOCC2)c2cccnc2c1O [Compound 10] , thanks.
Result: 5.20

* * *

Target: EphrinB2-EphB2 (Homo sapiens)
Construct: soluble human EphB1-His, EphB2-His, and EphB4-His ectodomains; commercially available human EphrinB1-Fc (EB1), EphrinB2-Fc (EB2), and EphrinB3-Fc (EB3) ectodomain proteins; purchased
Experiment: Octet tetramerization inhibition, immobilized human EphrinB2 binding to 50 nM soluble human EphB2
Details: Absolute Dissociation IC50 (450 sec), Table A, EphrinB2-EphB2
Below, each entry is listed with its recorded IC50.
Write the value in nM as a bare number.

{"compound": "O=S1(=O)CCN(Cc2cc(Br)c(O)c3ncccc23)CC1", "IC50, nM": 1260}
{"compound": "COc1ccccc1N1CCN(Cc2cc(Br)c(O)c3ncccc23)CC1", "IC50, nM": 360}
{"compound": "Oc1c(Br)cc(CN2CCN(Cc3ccc(Br)cc3)CC2)c2cccnc12 [Compound 44]", "IC50, nM": 380}
{"compound": "Oc1c(Cl)cc(CN2CCOCC2)c2cccnc12 [Compound 4]", "IC50, nM": 760}

Task: # query: IC50 | item Oc1c(Cl)cc(CN2CCOCC2)c2cccnc12 [Compound 3] | system: EphrinB2-EphB2 (Homo sapiens)
Result: 1700

* * *

Target: EphA3-EphrinA1 (Homo sapiens, UniProt P29320)
Assay: Octet, immobilized human EphA3 binding to human EphrinA1
Settings: Human EphA3-EphrinA1; immobilized human EphA3; 50 nM soluble human EphrinA1; dissociation; absolute; read-out: Absolute Dissociation IC50
quantity_kind: pIC50
Please treat pIC50 as minus the base-10 logarithm of the molar concentration.

Please review the entries below; each comes with its answer.
{"substance_smiles": "Oc1c(Cl)cc(CN2CCOCC2)c2cccnc12", "pIC50": 6.05}
{"substance_smiles": "Oc1c(Br)cc(CN2CCOCC2)c2cccnc12", "pIC50": 5.70}
{"substance_smiles": "Oc1ccc(CN2CCN(Cc3ccc(C(F)(F)F)cc3)CC2)c2cccnc12", "pIC50": 5.03}
{"substance_smiles": "O=S1(=O)CCN(Cc2ccc(O)c3ncccc23)CC1", "pIC50": 4.53}

Consider the record given below.
Task: pIC50 lookup needed for "Oc1ccc(CN2CCOCC2)c2cccnc12" , thanks.
Result: 5.17

* * *

Molecular target: EphrinB2-EphB1 (Homo sapiens, UniProt P54762)
Construct: soluble human EphB1-His, EphB2-His, and EphB4-His ectodomains; commercially available human EphrinB1-Fc (EB1), EphrinB2-Fc (EB2), and EphrinB3-Fc (EB3) ectodomain proteins; purchased
Test: Octet 80 sec association/500 sec dissociation, immobilized human EphrinB2-Fc binding to soluble human EphB1-His
Conditions: EphB1; Association (AUC); read-out: Absolute IC50
Below, each entry is listed with its recorded IC50.

{"substance_smiles": "Oc1c(I)cc(CN2CCOCC2)c2cccnc12", "IC50": "> 3.2 µM"}

Consider the record given below.
Task: IC50 lookup needed for "Oc1c(Br)cc(CN2CCN(c3ccc(Br)cc3)CC2)c2cccnc12" , thanks.
Result: > 3.2 µM

* * *

Molecular target: EphrinB2-EphB1 (Homo sapiens)
Construct: soluble human EphB1-His, EphB2-His, and EphB4-His ectodomains; commercially available human EphrinB1-Fc (EB1), EphrinB2-Fc (EB2), and EphrinB3-Fc (EB3) ectodomain proteins; purchased
Sequence (P54762 18-540 limits assumed): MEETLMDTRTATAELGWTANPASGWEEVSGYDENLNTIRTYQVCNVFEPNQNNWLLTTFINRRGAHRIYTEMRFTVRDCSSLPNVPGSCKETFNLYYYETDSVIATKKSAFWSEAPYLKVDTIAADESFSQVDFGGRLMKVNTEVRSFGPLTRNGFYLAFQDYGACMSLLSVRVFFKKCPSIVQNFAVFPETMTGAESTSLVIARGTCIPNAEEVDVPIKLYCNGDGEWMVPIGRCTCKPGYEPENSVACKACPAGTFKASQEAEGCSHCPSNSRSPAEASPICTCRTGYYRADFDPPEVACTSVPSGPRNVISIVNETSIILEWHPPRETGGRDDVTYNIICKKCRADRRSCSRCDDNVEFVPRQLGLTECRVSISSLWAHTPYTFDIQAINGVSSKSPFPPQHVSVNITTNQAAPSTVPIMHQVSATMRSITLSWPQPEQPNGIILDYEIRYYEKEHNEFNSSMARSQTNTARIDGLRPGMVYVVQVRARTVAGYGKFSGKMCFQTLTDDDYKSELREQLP
Assay: Octet 80 sec association/500 sec dissociation, immobilized human EphrinB2-Fc binding to soluble human EphB1-His
Conditions: EphB1; Dissociation (135″); read-out: Absolute IC50
Below, each entry is listed with its recorded pIC50.
Please treat pIC50 as minus the base-10 logarithm of the molar concentration.

Task: pIC50 lookup needed for "Oc1c(I)cc(CN2CCOCC2)c2cccnc12" , thanks.
Result: 6.07

Task: What do you have for "Oc1c(Br)cc(CN2CCN(c3ccc(Br)cc3)CC2)c2cccnc12" ?
Result: 6.44

* * *

Target: EphrinB2-EphB4 (Homo sapiens, UniProt P54760)
Construct: soluble human EphB1-His, EphB2-His, and EphB4-His ectodomains; commercially available human EphrinB1-Fc (EB1), EphrinB2-Fc (EB2), and EphrinB3-Fc (EB3) ectodomain proteins; purchased
Sequence (P54760 16-539 limits assumed): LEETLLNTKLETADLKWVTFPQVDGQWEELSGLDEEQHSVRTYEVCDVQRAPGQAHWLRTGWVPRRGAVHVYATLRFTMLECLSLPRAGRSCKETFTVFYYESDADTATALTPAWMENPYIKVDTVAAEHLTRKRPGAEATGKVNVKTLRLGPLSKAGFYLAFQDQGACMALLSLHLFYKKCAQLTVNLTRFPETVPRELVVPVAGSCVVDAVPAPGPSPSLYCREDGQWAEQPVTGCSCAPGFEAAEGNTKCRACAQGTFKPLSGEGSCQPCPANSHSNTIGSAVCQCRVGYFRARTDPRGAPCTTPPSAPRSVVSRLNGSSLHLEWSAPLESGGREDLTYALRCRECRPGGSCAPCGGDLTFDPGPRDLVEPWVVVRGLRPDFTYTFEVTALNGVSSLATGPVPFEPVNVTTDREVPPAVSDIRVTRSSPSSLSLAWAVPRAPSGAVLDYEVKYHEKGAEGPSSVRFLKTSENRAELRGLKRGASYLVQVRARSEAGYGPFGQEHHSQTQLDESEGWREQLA
Test: Octet 80 sec association/500 sec dissociation, immobilized human EphrinB2-Fc binding to soluble human EphB4-His
Details: EphB4; 25 nM EphB4; 3.2 μM compound; A20-I as max control; 0* = less than 0, no inhibition; read-out: % Inhibition: Association + Dissociation (160 sec)
quantity_kind: inhibition at 3.2 µM (%)
Write the value in % as a bare number.

Please review the entries below; each comes with its answer.
{"substance_smiles": "Oc1c(Br)cc(CN2CCOCC2)c2cccnc12", "inhibition at 3.2 µM / %": 23}
{"substance_smiles": "O=[N+]([O-])c1cc(CN2CCS(=O)(=O)CC2)c2cccnc2c1O", "inhibition at 3.2 µM / %": 0}
{"substance_smiles": "Oc1c(Br)cc(CN2CCN(Cc3ccc(Br)cc3)CC2)c2cccnc12", "inhibition at 3.2 µM / %": 28.3}
{"substance_smiles": "Oc1ccc(CN2CCN(Cc3ccc(C(F)(F)F)cc3)CC2)c2cccnc12", "inhibition at 3.2 µM / %": 0}
{"substance_smiles": "Oc1ccc(CN2CCN(c3ccc(Br)cn3)CC2)c2cccnc12", "inhibition at 3.2 µM / %": 36.9}
{"substance_smiles": "O=C(Cc1ccccc1)Nc1ccc(N2CCN(Cc3ccc(O)c4ncccc34)CC2)cc1", "inhibition at 3.2 µM / %": 37.2}
{"substance_smiles": "O=S1(=O)CCN(Cc2cc(Br)c(O)c3ncccc23)CC1", "inhibition at 3.2 µM / %": 37.2}
{"substance_smiles": "Oc1c(Cl)cc(CN2CCOCC2)c2cccnc12", "inhibition at 3.2 µM / %": 35.5}
{"substance_smiles": "COc1ccccc1N1CCN(Cc2cc(I)c(O)c3ncccc23)CC1", "inhibition at 3.2 µM / %": 35.6}
{"substance_smiles": "OCc1ccc2c(CN3CCOCC3)cc(Br)c(O)c2n1", "inhibition at 3.2 µM / %": 7.6}

Task: inhibition at 3.2 µM lookup needed for "Oc1c(I)cc(CN2CCOCC2)c2cccnc12" , thanks.
Result: 32.9

Task: What do you have for "Oc1ccc(CN2CCN(Cc3ccc(Br)cc3)CC2)c2cccnc12" ?
Result: 0
